The origin of these recorded values is patent US10968193B2.

target.system: human GPR40 (Homo sapiens, UniProt O14842)
Construct: expressed in transfected cells; host or cells: HEK cells stably expressing the aequorin reporter
Sequence (O14842 whole entry): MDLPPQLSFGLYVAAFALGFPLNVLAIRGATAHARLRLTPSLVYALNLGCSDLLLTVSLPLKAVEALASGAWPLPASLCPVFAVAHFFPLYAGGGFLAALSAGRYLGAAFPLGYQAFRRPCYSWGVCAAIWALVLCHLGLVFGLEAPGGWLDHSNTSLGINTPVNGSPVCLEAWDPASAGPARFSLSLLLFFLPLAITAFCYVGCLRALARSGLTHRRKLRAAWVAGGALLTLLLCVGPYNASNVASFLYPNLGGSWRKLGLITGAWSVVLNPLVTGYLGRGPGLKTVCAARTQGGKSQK
assay.info: Inositol Phosphate Turnover (IP1) Assay 3
Type: cell-based
details: HEK cells stably expressing human GPR40
pEC50: −log10 of the molar value.
Label met when pEC50 is at or above 9; otherwise label not met.

Please check the record COc1cc(-c2ccc(C3CCc4ccc([C@H](C5CC5)[C@H](C)C(=O)O)cc4O3)c(CN3CCCC3)c2)ccn1 (single isomer, unassigned) [Example 112a] and state if its pEC50 is at or above 9.
not met

Further, for COc1cc(-c2ccc(C3CCc4ccc([C@H](C5CC5)[C@H](C)C(=O)O)cc4O3)c(CN3CCCC3(C)C)c2)ccn1 (single isomer, unassigned) [Example 111b] ?
met

Subsequent entry: COc1cc(-c2ccc(C3CCc4ccc([C@H](C5CCC5)[C@H](C)C(=O)O)cc4O3)cc2CN2CCCC2C)c(F)cn1 (stereo partly drawn) [Example 102]
met

Next molecule: CCOc1cc(-c2ccc(C3CCc4ccc([C@H](C5CC5)[C@H](C)C(=O)O)cc4O3)cc2CN(CC)CC)c(F)cn1 (single isomer, unassigned) [Example 172]
not met

Can you check COc1cc(-c2cc(F)c(C3CCc4ccc([C@H](C5CC5)[C@H](C)C(=O)O)cc4O3)cc2CN(C(C)C)C(C)C)ccn1 (single isomer, unassigned) [Example 183] next?
met

Item: COc1cc(-c2ccc(C3CCc4ccc([C@H](C5CC5)[C@H](C)C(=O)O)cc4O3)cc2CN2CCC[C@H]2C)ccn1 (stereo partly drawn)
not met

And the next one, COc1cc(-c2ccc(C3CCc4ccc([C@H](C5CC5)[C@H](C)C(=O)O)cc4O3)cc2CN(C)C(C)(C)C)ccn1 (stereo partly drawn) [Example 234] ?
not met

COc1ccc(F)c(-c2ccc(C3CCc4ccc([C@H](C5CC5)[C@H](C)C(=O)O)cc4O3)cc2CN2CCCCC23CC3)n1 (stereo partly drawn) [compound 190] , same question.
not met
